- Tested on: enterococcus (106)
- Assay: Clinical isolates, agar double dilution method
- Assay type: cell-based
- Reported Conditions: 106 clinical isolates of enterococcus; read-out: MIC90
Recorded MIC90 by entry

Worked set:
Compound	Subject Of Test	Result
COC1C(OC(C)=O)CC(=O)OC(C)C/C=C/C=C/C(OC2CCC(N(C)C)C(C)O2)C(C)CC(CC=O)C1OC1OC(C)C(OC2CC(C)(O)C(OC(=O)CC(C)C)C(C)O2)C(N(C)C)C1O (stereo not drawn)	enterococcus (106)	16 µg/mL
CC[C@H]1OC(=O)[C@H](C)[C@@H](O[C@H]2C[C@@](C)(OC)[C@@H](O)[C@H](C)O2)[C@H](C)[C@@H](O[C@@H]2O[C@H](C)C[C@H](N(C)C)[C@H]2O)[C@](C)(O)C[C@@H](C)CN(C)[C@H](C)[C@@H](O)[C@]1(C)O [azithromycin, reference compound]	enterococcus (106)	> 64 µg/mL

// MIC90 value for CCC(=O)OC1CC(=O)OC(C)C/C=C/C=C/C(OC2CCC(N(C)C)C(C)O2)C(C)CC(CC=O)C(OC2OC(C)C(OC3CC(C)(O)C(OC(=O)CC(C)C)C(C)O3)C(N(C)C)C2O)C1OC (stereo not drawn) : 64 µg/mL

----------
Measured ED50 values are reported for all entries that follow.
- Test system: pyogenic streptococcus 119
- Assay: Curative effect on mouse with abdominal infection (ED50)
- Assay type: in vivo
- Reported Conditions: Streptococcus, 119, 168 h, pyogenic streptococcus 119, challenging dose 4.9 × 10^4 CFU/0.5 ml, deaths in 7 days, Bliss, read-out: ED50
Answer format: numeric, mg/kg implied, no suffix.

Molecule	ED50 / mg/kg
CCC(=O)OC1CC(=O)OC(C)C/C=C/C=C/C(OC2CCC(N(C)C)C(C)O2)C(C)CC(CC=O)C(OC2OC(C)C(OC3CC(C)(O)C(OC(=O)CC(C)C)C(C)O3)C(N(C)C)C2O)C1OC (centres unmarked)	52.8

With those in mind, consider the next molecule.
Value of ED50 reported for the molecule CC[C@H]1OC(=O)[C@H](C)[C@@H](O[C@H]2C[C@@](C)(OC)[C@@H](O)[C@H](C)O2)[C@H](C)[C@@H](O[C@@H]2O[C@H](C)C[C@H](N(C)C)[C@H]2O)[C@](C)(O)C[C@@H](C)CN(C)[C@H](C)[C@@H](O)[C@]1(C)O [azithromycin, reference compound] is 68.5
